Entries and their measured GI50 follow.
Tested on: MDA-MB-435
Assay: NCI tumour cell line growth inhibition, 48 h
Active and inactive are the calls of the source. Cut-off read from the data, not from the text of the source: active = GI50 up to about 1.1 µM and inactive = higher.

compound | GI50
CCN(CC)Cc1ccc(C(=S)Nc2ccc(C)cc2)s1 | 12.2 µM (inactive)
C=C(NC(=O)C(=C)NC(=O)c1ccc2c(n1)-c1coc(n1)C(=C)NC(=O)C(=C)NC(=O)c1nc(oc1C)C(=C)NC(=O)C(C(C)(C)O)NC(=O)C(=C)NC(=O)c1coc(n1)/C(=C/C)NC(=O)[C@H]([C@@H](C)O)NC(=O)c1csc-2n1)C(N)=O (some centres undefined) | > 87.5 µM (inactive)
NC(Cc1ccnnc1)C(=O)O (centres undefined) | > 100 µM (inactive)
O=[N+]([O-])c1cccc2c(/N=N/c3ccc4ccccc4c3O)c(O)cc(S(=O)(=O)O)c12 | 23.8 µM (inactive)
